Test: Clearance in CD-1 mouse at 2 to 3 mg/kg, iv administered as single bolus dose
Format: ADME, organism-based
Conditions: in vivo
observed-property: clearance (mL/min/kg)

>  <compound>
COc1nc2ccc(C#N)cc2cc1[C@@H](c1cccc(C)c1F)[C@@](O)(CCN(C)C)c1cc(SC)nc(SC)c1 (racemic)

>  <endpoint-result>
22

$$$$
>  <compound>
CCSc1cc([C@](O)(CCN(C)C)[C@@H](c2cc3cc(C#N)ccc3nc2OC)c2cccc(OC)c2F)cc(SCC)n1 (racemic)

>  <endpoint-result>
29

$$$$
>  <compound>
COc1cc([C@](O)(CCN(C)C)[C@@H](c2cc3cc(Br)ccc3nc2OC)c2ccnc(OC)c2OC)cc(OC2CCC2)n1 (racemic)

>  <endpoint-result>
11

$$$$
>  <compound>
COc1cccc([C@H](c2cc3cc(C#N)ccc3nc2OC)[C@@](O)(CCN(C)C)c2cc(SC)nc(SC)c2)c1F (racemic)

>  <endpoint-result>
44

$$$$
